All values here come from the NIST ThermoML archive (doi:10.1007/s10765-011-0995-x).

measurementParameters: 303.15 K; 101 kPa; Liquid; Pulse-echo method
The following molecules are listed with their measured speed of sound values.
recordedMetric: speed of sound (m/s)

molecule="Cc1ccc(Cl)cc1 [4-chlorotoluene]" recordedmetric="speed of sound" measvalue=1271
molecule="CCCCCCCCCCO [decan-1-ol]" recordedmetric="speed of sound" measvalue=1364.9
molecule="Cc1ccccc1Cl [2-chlorotoluene]" recordedmetric="speed of sound" measvalue=1284.1
molecule="Cc1cccc(Cl)c1 [3-chlorotoluene]" recordedmetric="speed of sound" measvalue=1280.1

* * *

Readings of speed of sound for the listed compounds
measurementParameters: 298.15 K; 101 kPa; Liquid; Pulse-echo method
recordedMetric: speed of sound (m/s)

structuresmiles=CCCCCCCCCCO recordedmetric="speed of sound" measvalue=1380.1
structuresmiles=Cc1ccccc1Cl recordedmetric="speed of sound" measvalue=1301.2
structuresmiles=Cc1ccc(Cl)cc1 recordedmetric="speed of sound" measvalue=1289.1
structuresmiles=Cc1cccc(Cl)c1 recordedmetric="speed of sound" measvalue=1298.3
